Tested on: RAW-Dual (murine macrophage reporter line)
Assay: NF-kB reporter (SEAP) activity fold change vs agonist alone; higher = enhanced NF-kB activity
Conditions: modulator concentration 10 µM; agonist: MPLA […]
NF-kB reporter of 1 or higher: met. Under 1: not met.

(Q) Does NF-kB reporter meet or surpass 1 for "Oc1ccc(N=Cc2ccccc2F)cc1" ?
(A) met

Consider now this further molecule.
(Q) Entry "CCc1cnn2c(NCc3ccc[n+]([O-])c3)cc(N3CCCC[C@H]3CCO)nc12" : is its NF-kB reporter no less than 1?
(A) not met

* * *

System: RAW-Dual (murine macrophage reporter line)
Assay: IRF reporter (Lucia luciferase) activity fold change vs agonist alone; higher = enhanced IRF activity
Conditions: modulator concentration 10 µM; agonist: 3'3'-cGAMP 10 ug/mL
Reported IRF reporter values are given for each entry in this list.
Output: the number by itself.

(Q) Sample "Cc1cccc(C(=O)Nc2cccc([N+](=O)[O-])c2C)c1" — what was its IRF reporter?
(A) 0.964

(Q) Input "Nc1nc(=O)[nH]cc1F"
(A) 1.02

(Q) What do you get for "O=C(O)CCCNc1c(C(=O)Nc2ccc(Cl)cc2)cc([N+](=O)[O-])cc1[N+](=O)[O-]" ?
(A) 0.629

(Q) Please give the result for "O=C(CSc1nnc(COc2ccc(Cl)cc2)o1)N1CCCc2ccccc21" too.
(A) 0.885

---
(Q) Given the entry "COc1cc2ncnc(Nc3ccc(F)c(Cl)c3)c2cc1NC(=O)/C=C/CN1CCCCC1" , report its measured IRF reporter.
(A) 0.486

(Q) What about this molecule? "Cl.N=C(N)NC(=O)c1nc(Cl)c(N)nc1N"
(A) 0.984

(Q) Param item: COC(CNC(=O)c1cccc(Br)c1)c1ccccc1C (configuration not stated)
(A) 0.832

(Q) Consider next the molecule "CCOC(=O)C1CCN(C(=O)c2ccc(C#CC(C)(C)O)cc2)CC1" in the same way.
(A) 0.91

(Q) One more molecule: Cc1ccc(N2C(=O)C(=CC3CC=CCC3)SC2=S)cc1 (configuration not stated)
(A) 0.397

(Q) // query: "O=C(CCCc1ccccc1)NCC1(O)CCCC1"
(A) 0.968

(Q) How about this molecule: "O=C(c1ccc(F)cc1)N(C1CCCCC1)C1CCCCC1"
(A) 0.959

(Q) Record: "Cc1nnc(C)n1N=Cc1ccc(C(F)(F)F)cc1"
(A) 0.957
